# Test system: SK-MEL-5
# Test name: NCI tumour cell line growth inhibition, 48 h
Activity calls are given as the source filed them. No stated cut-off is given here; in the data, active = GI50 up to about 1.1 µM and inactive = higher.
Readout kind: GI50

{"columns": ["Compound", "Readout kind", "Measured result"],
 "data": [
  ["Nc1nc(Cl)cc(NCCCCCCNc2cc(Cl)nc(N)n2)n1", "GI50", "13.1 µM (inactive)"],
  ["COc1cc(CCc2ccc(OC(C)=O)cc2)cc(OC)c1OC", "GI50", "> 100 µM (inactive)"],
  ["CC1C=C(NCC2(CO)CCC2)N=C(N)N1 (stereo not drawn)", "GI50", "> 100 µM (inactive)"],
  ["O=c1[nH]c(=O)n(C2OC(CO)C(O)C2O)cc1Oc1ccccc1 (stereo not drawn)", "GI50", "> 100 µM (inactive)"],
  ["N=C(N)N/N=C(/c1ccccc1)c1ccc(O)cc1O", "GI50", "25.8 µM (inactive)"],
  ["NC(=O)N/N=C1/CCCC/C1=C\\c1ccccc1", "GI50", "> 100 µM (inactive)"],
  ["CN(C)c1ccc(/C=c2/sc3nc(=O)c(-c4ccccc4NC(=O)C(F)(F)F)nn3c2=O)cc1", "GI50", "> 100 µM (inactive)"],
  ["CCOC(=O)C1=C(O)C(=O)c2c(OC)ccc(OC)c2C1=O", "GI50", "> 100 µM (inactive)"],
  ["Cc1cc(C)nc(NS(=O)(=O)c2ccc(Nc3c4ccccc4nc4c(C(=O)Nc5ccc(S(=O)(=O)N=C(N)N)cc5)ccc(Cl)c34)cc2)n1", "GI50", "98.6 µM (inactive)"],
  ["C=CCSS/C=C/C[S+]([O-])CC=C (stereo not drawn)", "GI50", "36.6 µM (inactive)"],
  ["c1csc(-c2nnc(C34CC5CC(CC(C5)C3)C4)o2)c1", "GI50", "17.1 µM (inactive)"],
  ["Cc1ccc(C)c(NC(=O)C(=O)C2C(=O)C3=C(CC2(C)C)Nc2ccccc2S3)c1 (stereo not drawn)", "GI50", "79.8 µM (inactive)"],
  ["COc1ccc(CCN2C(=O)CC34C=CC(CC3C2=O)O4)cc1OC (stereo not drawn)", "GI50", "> 100 µM (inactive)"],
  ["CC(=O)c1c2c(cc3c1CC1(C3)Cc3cc4c(c(C(C)=O)c3C1)CCC4)CCC2", "GI50", "> 100 µM (inactive)"],
  ["CC(=O)Oc1ccc2c(c1)[nH]c1c3ccc(OC(C)=O)cc3oc(=O)c21", "GI50", "15.3 µM (inactive)"],
  ["O=c1cc(-c2ccc(O)c(O)c2)oc2cc(O[C@H]3O[C@H](CO)[C@@H](O)[C@H](O)[C@H]3O)cc(O)c12", "GI50", "70.1 µM (inactive)"],
  ["CCCCCCCCCCCC(=O)C1=C(O)CC(O)CC1=O (stereo not drawn)", "GI50", "> 100 µM (inactive)"],
  ["C=C1CCC2(C(C)=O)COC1(C)O2 (stereo not drawn)", "GI50", "> 100 µM (inactive)"],
  ["O=C1[C@H](c2ccccc2)C2c3ccccc3CCN12 (stereo partly drawn)", "GI50", "> 10 µM (inactive)"],
  ["CC1(C)C2CC(=O)C1(C)C(O)C2Br (stereo not drawn)", "GI50", "> 100 µM (inactive)"],
  ["CN(CCO)c1nc(N)cc(=O)[nH]1", "GI50", "> 100 µM (inactive)"],
  ["Cn1c(=O)c2ccccc2c2ccccc21", "GI50", "30.3 µM (inactive)"],
  ["C(=N\\Cc1ccccc1)/c1ccccc1-c1ccccc1/C=N/Cc1ccccc1", "GI50", "> 7.03 µM (inactive)"]
]}

###

# Test system: DMS-114
# Test name: NCI tumour cell line growth inhibition, 48 h
Calls of active or inactive are those of the source. Cut-off read from the data, not from the text of the source: active = GI50 up to about 1.1 µM and inactive = higher.
GI50 values for the compounds below.

{"columns": ["Compound", "GI50"],
 "data": [
  ["O=C1C(c2ccc(Cl)cc2)=[N+]([O-])c2ccccc21", "4.07 µM (inactive)"],
  ["CCOc1ccccc1NC(=O)CCC(=O)OC", "> 61.1 µM (inactive)"],
  ["C=C1CCC2(C(C)=O)COC1(C)O2 (stereo unspecified)", "> 100 µM (inactive)"],
  ["Cc1cc2c(c3c1c1ccccc1n3C)C(=O)c1ccccc1C2=O", "> 100 µM (inactive)"],
  ["CC(C)(C)N/N=N/c1cn(C2OC(CO)C(O)C2O)c(=O)[nH]c1=O (stereo unspecified)", "40.3 µM (inactive)"],
  ["Cn1cc(NC(=O)c2cc(NC(=O)CCCCCCCCCC(=O)Nc3cc(C(=O)Nc4cc(C(=O)NCCC(=N)N)n(C)c4)n(C)c3)cn2C)cc1C(=O)NCCC(=N)N", "84.9 µM (inactive)"],
  ["COc1ccc2c3c1C(=O)CCCC3CO2 (stereo unspecified)", "> 100 µM (inactive)"],
  ["O=[N+]([O-])c1ccc(-c2ccc(C3=Nn4c(nnc4-c4ccc(Cl)cc4)SC3)o2)cc1", "> 100 µM (inactive)"],
  ["O=C1CCC2(c3ccc(Cl)cc3)Nc3ncccc3N12 (stereo unspecified)", "> 100 µM (inactive)"],
  ["O=C(c1c(O)cc(O)cc1O)C1Cc2ccccc21 (stereo unspecified)", "> 100 µM (inactive)"],
  ["Cc1ccc(NC(=O)CC2C(=O)Nc3ccccc3S2(=O)=O)c(C)c1 (stereo unspecified)", "15 µM (inactive)"]
]}

###

# Test system: SF-295
# Test name: NCI tumour cell line growth inhibition, 48 h
The source made the active and inactive calls. Rule as the data show it: active = GI50 up to about 1.1 µM and inactive = higher.
Outcome codes: active, inactive

{"columns": ["Molecule", "Discrete label"],
 "data": [
  ["Nc1nc(Cl)cc(NCCCCCCNc2cc(Cl)nc(N)n2)n1", "inactive"],
  ["O=C1N=C2SC=C(NC(=S)Nc3ccccc3)N2NC12c1ccccc1-c1ccccc12", "inactive"],
  ["O=C1CC(c2cccc([N+](=O)[O-])c2)C2(C(=O)NC(=S)NC2=O)C(c2cccc([N+](=O)[O-])c2)C1 (stereo not drawn)", "inactive"],
  ["CC1=C([S+]([O-])c2ccc(C)cc2)CCC2(CCCCO2)O1 (stereo not drawn)", "inactive"],
  ["CCCCOC(=O)CNC(=O)OCCCCC#CC#CCCCCOC(=O)NCC(=O)OCCCC", "inactive"],
  ["C#Cc1cc(CN(CC(=O)OC(C)(C)C)CC(=O)OC(C)(C)C)nc(CN(CC(=O)OC(C)(C)C)CC(=O)OC(C)(C)C)c1", "inactive"],
  ["CC1=NN(c2ccccc2Cl)C2(C1)C(Cl)C(=O)N2c1nc2ccccc2s1 (stereo not drawn)", "inactive"],
  ["C[C@@H]1C[C@@H](O)[C@]2(O)O[C@@H]3C[C@@]4(C=O)[C@@H](CC[C@@H]5[C@@H]4CC[C@]4(C)[C@@H](C6=CC(=O)OC6)CC[C@]54O)C[C@H]3O[C@@H]2O1 [CALACTIN]", "active"]
]}

###

Endpoint: GI50. System: HCT-15. Items follow.

{"columns": ["Compound", "Operator", "GI50 [µM]"],
 "data": [
  ["COc1c2c(c3c(c1CCC(=O)O)OC(C)(C)C=C3)OC(C)(C)C=C2", ">", 100],
  ["CCOC(=O)C12C3CCC1C2C(=O)C3 (stereo not given)", ">", 100],
  ["O=S(=O)(N/C(=N\\O)Nc1ccc(Cl)cc1)c1ccc(S(=O)(=O)c2ccccc2)s1", "=", 28.1],
  ["O=C1C(O)=C(CCCCCCCCC2CCCCC2)C(=O)c2ccccc21 [MENOCTONE]", "=", 4.69],
  ["COC(=O)CC[C@@H](C)[C@H]1CC[C@H]2[C@@H]3CC[C@@H]4C[C@H](O)CC[C@]4(C)[C@H]3CC[C@]12C", "=", 17.1]
]}

###

GI50 overview
# System: LXFL 529
# Test name: NCI tumour cell line growth inhibition, 48 h
Activity calls are given as the source filed them. Cut-off read from the data, not from the text of the source: active = GI50 up to about 1.1 µM and inactive = higher.

{"columns": ["Compound", "GI50"],
 "data": [
  ["CC(C)(c1cn(Cc2ccccc2)c2ccccc12)c1cn(Cc2ccccc2)c2ccccc12", "> 100 µM (inactive)"],
  ["COC(=O)C1=C(C(=O)OC)C2(C3C(SC)=CC(C)(C)CC3S1)N(Cc1ccccc1)CCN2Cc1ccccc1 (stereo not given)", "> 100 µM (inactive)"],
  ["COC1C2c3ccccc3C(C#N)(Cc3ccc4c(c32)OCO4)N1C(=O)c1ccccc1 (stereo not given)", "46 µM (inactive)"],
  ["Cc1ccc(NC(=O)CC2C(=O)Nc3ccccc3S2(=O)=O)c(C)c1 (stereo not given)", "16.7 µM (inactive)"],
  ["O=C1C=CC(=CC=C2C=CN(CCCCCCCCCCC(=O)NCCCCCCCCCCCC(=O)O)C=C2)C=C1", "> 100 µM (inactive)"],
  ["CC1=NN(C(=O)c2ccc(Cl)cc2)C(=O)/C1=C/c1ccco1", "> 100 µM (inactive)"],
  ["CCOC(=O)CSc1nnc(C(Sc2nc(-c3ccccc3)c(-c3ccccc3)[nH]2)C(C)C)n1-c1ccccc1 (stereo not given)", "> 10 µM (inactive)"],
  ["Oc1cc(-c2ccccc2)nc2cc3c(cc12)OCO3", "1.82 µM (inactive)"],
  ["CC(C)CN1CC(C)C(=O)NC1=O (stereo not given)", "> 100 µM (inactive)"],
  ["Oc1ccc(-c2c3ccccc3c(-c3ccc(O)cc3)c3ccccc23)cc1", "91.6 µM (inactive)"]
]}

The measurements presented in this section are drawn from ChEMBL document CHEMBL1201862.
